Where do the numbers come from? From patent US20120207760A1.

targetEntity: hemagglutinin (HA) of influenza A/Solomon Islands/3/06 H1N1 (Influenza A virus A/Solomon …)
testMethodNotes: ELISA, inactivated whole virions coated; transfection supernatant set 5
measurementType: OD450 (OD450)
Your answer is read as OD450, so omit the unit and give the number.

TCN-540 (5060_F05) (antibody, V domains shown) VH: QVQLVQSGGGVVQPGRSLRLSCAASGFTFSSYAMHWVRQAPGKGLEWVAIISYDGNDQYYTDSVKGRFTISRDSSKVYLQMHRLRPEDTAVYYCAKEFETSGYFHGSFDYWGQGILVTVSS VL: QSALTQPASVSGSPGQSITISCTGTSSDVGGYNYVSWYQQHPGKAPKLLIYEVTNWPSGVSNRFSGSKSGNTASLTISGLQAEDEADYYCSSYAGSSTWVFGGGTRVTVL    0.09
TCN-555 (5246_L16) (antibody, V domains shown) VH: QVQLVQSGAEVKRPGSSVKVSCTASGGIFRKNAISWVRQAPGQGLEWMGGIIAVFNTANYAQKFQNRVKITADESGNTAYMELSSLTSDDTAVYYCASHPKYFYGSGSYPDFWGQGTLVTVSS VL: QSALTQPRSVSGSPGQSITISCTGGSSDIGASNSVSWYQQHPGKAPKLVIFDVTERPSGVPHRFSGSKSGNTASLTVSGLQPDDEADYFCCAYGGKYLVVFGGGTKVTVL    3.57
TCN-556 (5089_K12) (antibody, V domains shown) VH: QVQLVQSGAEVKKPGASVKVSCKASGYTFIGYDMHWVRQAPGQGLEWMGWINAKRGGTNYAQKFQGRVTMTRDTSISTAYMELNSLRSDDTAVYYCARGVGSRTTIFGVLNPEFDYWGQGTLVTVSS VL: QSALTQPPSASGSPGQSVTISCTGSSSDVGGYDYVSWYQQHPGKAPKLLIYEVTKRPSGVPDRFSGSKSGNTASLTVSGLQAEDEADYYCSSYAGNYNHVFGPGTKVTVL    3.64

Lookup: Suppose we examine the binder TCN-552 (5249_I23) (antibody, V domains shown) VH: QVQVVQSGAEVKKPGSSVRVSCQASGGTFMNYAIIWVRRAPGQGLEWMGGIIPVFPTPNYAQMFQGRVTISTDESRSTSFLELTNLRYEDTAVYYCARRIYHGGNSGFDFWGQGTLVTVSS VL: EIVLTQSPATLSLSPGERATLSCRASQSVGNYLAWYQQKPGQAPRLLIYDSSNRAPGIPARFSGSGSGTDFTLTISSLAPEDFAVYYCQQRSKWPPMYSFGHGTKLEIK ; what OD450 value has been reported?
Found: 3.61

Lookup: Here is the next binder: TCN-557 (5081_A04) (antibody, V domains shown) VH: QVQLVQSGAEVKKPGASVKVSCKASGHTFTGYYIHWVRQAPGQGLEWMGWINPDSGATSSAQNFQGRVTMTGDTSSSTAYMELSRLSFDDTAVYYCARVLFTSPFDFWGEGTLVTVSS VL: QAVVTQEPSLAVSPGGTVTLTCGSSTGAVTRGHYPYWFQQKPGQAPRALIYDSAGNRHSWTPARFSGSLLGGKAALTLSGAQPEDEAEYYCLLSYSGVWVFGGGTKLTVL
Found: 3.58

Lookup: Here is the next binder: TCN-547 (5092_F11) (antibody, V domains shown) VH: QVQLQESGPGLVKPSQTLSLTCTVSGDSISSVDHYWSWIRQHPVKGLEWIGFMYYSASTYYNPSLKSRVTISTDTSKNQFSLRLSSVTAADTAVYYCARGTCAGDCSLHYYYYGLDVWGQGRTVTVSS VL: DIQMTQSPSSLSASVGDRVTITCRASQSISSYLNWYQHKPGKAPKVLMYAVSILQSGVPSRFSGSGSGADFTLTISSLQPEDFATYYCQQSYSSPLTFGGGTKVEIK
Found: 0.09

Lookup: Here is the next binder: TCN-542 (5079_A16) (antibody, V domains shown) VH: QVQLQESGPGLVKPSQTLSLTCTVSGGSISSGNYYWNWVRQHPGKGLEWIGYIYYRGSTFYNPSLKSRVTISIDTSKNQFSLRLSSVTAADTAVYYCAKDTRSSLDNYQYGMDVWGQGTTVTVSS VL: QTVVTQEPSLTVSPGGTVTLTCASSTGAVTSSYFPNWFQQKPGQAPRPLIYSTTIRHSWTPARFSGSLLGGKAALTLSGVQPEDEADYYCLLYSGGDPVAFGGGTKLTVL
Found: 3.6

Lookup: Here is the next binder: TCN-560 (5084_P10) (antibody, V domains shown) VH: EVQLVESGGGLVQPGGSLRLSCAASGFIFRNYWMSWVRQAPGKGLEWVANIKQDGREKYYVDSLRGRVNISRDNAENSLYLHMNSLRVEDTAVYFCARARMVVVTGDGFDVWGHGTMVTVSS VL: DIQMTQSPSSLSASVGDRVTITCRASQNIKRYFNWYQQKPGKAPKLLIYAASNLENGVPSRFSGSGSGTDFTLTISSLQPEDFATYYCQQSFSKSWTFGQGTNVDIK
Found: 3.52

Lookup: Here is the next binder: TCN-504 (3251_K17) (antibody, V domains shown) VH: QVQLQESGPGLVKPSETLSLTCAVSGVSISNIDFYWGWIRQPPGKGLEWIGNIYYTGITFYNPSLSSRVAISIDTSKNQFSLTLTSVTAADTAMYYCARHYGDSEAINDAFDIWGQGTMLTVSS VL: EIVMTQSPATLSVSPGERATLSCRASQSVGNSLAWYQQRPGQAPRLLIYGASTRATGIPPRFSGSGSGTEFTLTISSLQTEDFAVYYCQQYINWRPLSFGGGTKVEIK
Found: 3.6

Lookup: Here is the next binder: TCN-539 (5056_A08) (antibody, V domains shown) VH: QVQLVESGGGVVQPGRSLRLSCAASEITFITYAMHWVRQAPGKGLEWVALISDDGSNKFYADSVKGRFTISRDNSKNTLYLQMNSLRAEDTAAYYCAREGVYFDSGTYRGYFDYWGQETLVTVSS VL: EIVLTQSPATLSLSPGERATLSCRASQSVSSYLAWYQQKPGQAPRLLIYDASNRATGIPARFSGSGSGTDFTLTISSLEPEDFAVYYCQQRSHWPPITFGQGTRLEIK
Found: 0.07
